Please respond with reported variant/HC_K99L for every item in the list.
Target: T1, mouse tissue factor pathway inhibitor (TFPI) (mouse, UniProt O54819 29-289, limits assumed)
T1 construct: bought; also called mTFPI; murine TFPI
T1 sequence (looked up): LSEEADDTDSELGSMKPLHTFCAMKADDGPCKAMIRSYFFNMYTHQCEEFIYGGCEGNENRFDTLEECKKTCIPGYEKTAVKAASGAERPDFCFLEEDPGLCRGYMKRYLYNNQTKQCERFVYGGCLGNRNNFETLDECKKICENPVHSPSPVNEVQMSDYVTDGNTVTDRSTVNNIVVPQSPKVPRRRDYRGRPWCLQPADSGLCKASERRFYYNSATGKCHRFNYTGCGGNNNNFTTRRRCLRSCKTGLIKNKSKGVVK
Assay: competitive ELISA

Please fill in: variant/HC_K99L reported for 2A8 HC S35D+S56G+K99L/LC Y48F+D91L+V96W (Fab, V domains shown) VH: QVQLVESGGGLVQPGGSLRLSCAASGFTFRSYGMDWVRQAPGKGLEWVSSIRGSSGSTYYADSVKGRFTISRDNSKNTLYLQMNSLRAEDTAVYYCARLYRYWFDYWGQGTLVTVSS VL: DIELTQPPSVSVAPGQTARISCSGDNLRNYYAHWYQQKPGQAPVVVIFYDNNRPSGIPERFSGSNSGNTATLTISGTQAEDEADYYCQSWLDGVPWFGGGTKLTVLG = 16.9 ratio

Please fill in: variant/HC_K99L reported for 2A8-227 (HC S35D+K99L/LC Y48F+D91L+V96W) (Fab, V domains shown) VH: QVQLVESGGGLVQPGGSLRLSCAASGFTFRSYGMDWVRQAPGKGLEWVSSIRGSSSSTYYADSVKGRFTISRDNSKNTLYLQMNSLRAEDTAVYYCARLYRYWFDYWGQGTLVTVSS VL: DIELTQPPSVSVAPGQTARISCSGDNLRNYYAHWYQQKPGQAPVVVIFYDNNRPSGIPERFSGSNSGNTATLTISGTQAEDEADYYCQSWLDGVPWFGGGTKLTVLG = 18.2 ratio
